System: 883617-216-R-J1-PDC tumor spheroids, viability;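 note: spheroids exposed to agents for 7 days before the viability read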
experimental_details: Anticancer human tumor 883617-216-R-J1-PDC patient-derived bladder carcinoma cell line growth inhibition [PI3K]; active = viability on the fitted dose curve at most 10% of control; inactive = the rest
experimental_conditions: second compound 10 µM; first compound 0.0316 µM; spheroids with HUVEC and MSC
From the text: Combinatorial screen of targeted agents with the PI3K inhibitors inavolisib, alpelisib, duvelisib, and copanlisib in multi-cell type tumor spheroids A high-throughput screen of multi-cell type tumor spheroids was designed to identify active combinations of targeted small molecules and PI3K pathway inhibitors. […] Compounds. […] If the clinical Cmax for an agent had not been determined, the highest concentration tested was 10 microM. […]
Labels: active, inactive

INSERT INTO assay_data (molecule, experimental_system, category_label) VALUES
  ('CC(C)NCC(C(=O)N1CCN(c2ncnc3c2C(C)CC3O)CC1)c1ccc(Cl)cc1 (stereo unspecified) + CC(Nc1ncnc2nc[nH]c12)c1cc2cccc(Cl)c2c(=O)n1-c1ccccc1', '883617-216-R-J1-PDC tumor spheroids, viability', 'inactive'),
  ('C[C@@H](NC(=O)c1ncnc(N)c1Cl)c1ncc(C(=O)Nc2cc(C(F)(F)F)c(Cl)cn2)s1 + CC(Nc1ncnc2nc[nH]c12)c1cc2cccc(Cl)c2c(=O)n1-c1ccccc1', '883617-216-R-J1-PDC tumor spheroids, viability', 'inactive'),
  ('CC(C)n1nc(-c2ccc3oc(N)nc3c2)c2c(N)ncnc21 + CC(Nc1ncnc2nc[nH]c12)c1cc2cccc(Cl)c2c(=O)n1-c1ccccc1', '883617-216-R-J1-PDC tumor spheroids, viability', 'inactive'),
  ('Cn1ncnc1[C@H]1c2n[nH]c(=O)c3cc(F)cc(c23)N[C@@H]1c1ccc(F)cc1 + Cc1nc(NC(=O)N2CCCC2C(N)=O)sc1-c1ccnc(C(C)(C)C(F)(F)F)c1', '883617-216-R-J1-PDC tumor spheroids, viability', 'active'),
  ('Cn1nccc1Nc1nccc(-c2ccn(C(CO)c3ccc(Cl)c(F)c3)c(=O)c2)n1 (stereo unspecified) + CC(Nc1ncnc2nc[nH]c12)c1cc2cccc(Cl)c2c(=O)n1-c1ccccc1', '883617-216-R-J1-PDC tumor spheroids, viability', 'inactive'),
  ('CC(=O)c1c(C)c2cnc(Nc3ccc(N4CCNCC4)cn3)nc2n(C2CCCC2)c1=O + Cc1nc(NC(=O)N2CCCC2C(N)=O)sc1-c1ccnc(C(C)(C)C(F)(F)F)c1', '883617-216-R-J1-PDC tumor spheroids, viability', 'active');

Data credit: PubChem BioAssay AID1963973
